Data credit: patent US20150045328A1

- TEST_TARGET: human S1P1 receptor (Homo sapiens)
- Construct: membranes used
- Sequence (P21453 whole entry): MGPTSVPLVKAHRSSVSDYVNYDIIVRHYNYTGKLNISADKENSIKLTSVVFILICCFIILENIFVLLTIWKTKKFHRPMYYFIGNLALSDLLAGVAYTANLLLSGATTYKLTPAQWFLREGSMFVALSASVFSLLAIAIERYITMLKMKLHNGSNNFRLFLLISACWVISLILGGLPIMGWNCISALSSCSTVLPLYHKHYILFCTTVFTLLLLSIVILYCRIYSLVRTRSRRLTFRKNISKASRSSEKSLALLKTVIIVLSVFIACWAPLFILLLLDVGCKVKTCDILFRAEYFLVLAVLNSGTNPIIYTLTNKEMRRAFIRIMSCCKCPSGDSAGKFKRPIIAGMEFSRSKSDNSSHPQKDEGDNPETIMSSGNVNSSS
- EXPERIMENTAL_DETAILS: GTP γ35S binding assay for S1P1 activity
- EXPERIMENTAL_CONDITIONS: activity potency, S1P1 receptor from GTP γ35S binding; membranes of cells stably expressing the S1P1 receptor
pEC50: −log10 of the molar value.
PROPERTY_MEASURED: pEC50

# annotated cases, reported pEC50 shown
| COMPOUND | PROPERTY_MEASURED | RESULT_VALUE |
| --- | --- | --- |
| CCCCC(CCCOc1ccc(CNCCC(=O)O)cc1Br)Cc1ccc(C)c(C)c1 (centres unmarked) | pEC50 | 8.38 |
| CCCCC(CCCOc1c(C)cc(CNCCCP(=O)(O)O)cc1C)Cc1ccc(C)c(C)c1 (centres unmarked) | pEC50 | 7.72 |
| CCCCCC(CCCOc1ccc(CNCCC(=O)O)cc1)Cc1ccc(C)c(C)c1 (centres unmarked) | pEC50 | 8.13 |

[A] CCCCC(CCCOc1ccc(CNCCCP(=O)(O)O)cc1Cl)Cc1ccc(C)c(C)c1 (centres unmarked)
[B] CCCCC(CCCOc1c(C)cc(CNCCC(=O)O)cc1C)Cc1ccc(C)c(C)c1 (centres unmarked)
-- ask # min-compare on pEC50 between A and B Reply briefly: the label of your chosen item.
-- reply B
(B: 8.01, A: 8.87)

[P] CCCC(CCCOc1ccc(CNCCC(=O)O)cc1C)Cc1ccc(C)c(C)c1 (centres unmarked)
[Q] CCCCCC(CCCOc1c(C)cc(CNCCCP(=O)(O)O)cc1C)Cc1ccc(C)c(C)c1 (centres unmarked)
-- ask # min-compare on pEC50 between P and Q Reply briefly: the label of your chosen item.
-- reply P
(P: 7.45, Q: 7.92)

[P] CCCC(CCCOc1ccc(CNCCCP(=O)(O)O)cc1Cl)Cc1ccc(C)c(C)c1 (centres unmarked)
[Q] CCCCC(CCCOc1ccc(CNCCC(=O)O)cc1C)Cc1ccc(C)c(C)c1 (centres unmarked)
[R] CCCC(CCCOc1ccc(CNCCC(=O)O)cc1Cl)Cc1ccc(C)c(C)c1 (centres unmarked)
[S] CCCCC(CCCOc1ccc(CNCCC(=O)O)cc1Cl)Cc1ccc(C)c(C)c1 (centres unmarked)
[T] CCCCC(CCCOc1ccc(CNCCCP(=O)(O)O)cc1Br)Cc1ccc(C)c(C)c1 (centres unmarked)
-- ask Number of compounds to sort: 5. Sort criterion: pEC50, ascending. List labels; respect the requested ordering.
-- reply R, P, Q, T, S

[a] CCCC(CCCOc1ccc(CNCCCP(=O)(O)O)cc1C)Cc1ccc(C)c(C)c1 (centres unmarked)
[b] CCCCC(CCCOc1ccc(CNCCCP(=O)(O)O)cc1)Cc1ccc(C)c(C)c1 (centres unmarked)
[c] CCCCCC(CCCOc1ccc(CNCCCP(=O)(O)O)cc1Cl)Cc1ccc(C)c(C)c1 (centres unmarked)
-- ask Number of compounds to sort: 3. Sort criterion: pEC50, ascending. List labels; respect the requested ordering.
-- reply b, a, c
